# measurement.target: UCHL1 (UniProt P09936)
# Sequence (P09936 whole entry, looked up, the tested form may be a part): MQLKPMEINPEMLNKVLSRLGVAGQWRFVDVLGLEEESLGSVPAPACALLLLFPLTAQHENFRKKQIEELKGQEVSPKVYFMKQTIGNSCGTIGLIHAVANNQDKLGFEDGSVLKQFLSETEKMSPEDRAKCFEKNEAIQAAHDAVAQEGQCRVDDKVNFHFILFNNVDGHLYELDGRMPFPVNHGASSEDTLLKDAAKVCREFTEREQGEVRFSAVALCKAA
# test.name: log2 ratio of Biotin-Ahx-Ub-VS probe labelling (fragment/DMSO); higher = less target engagement (more negative = stronger competition), active = hit call of the paper (q ≤ 0.05, log2 ratio ≤ -1)
# experimental.context: compound concentration: 200 uM; treatment time: 3 h
measured.metric: log2 ratio of Biotin-Ahx-Ub-VS probe labelling

Note to self: log2 ratio of Biotin-Ahx-Ub-VS probe labelling recorded for O=C(CCl)N1CCc2nc[nH]c2C1c1ccc(Cl)cc1 (centres undefined) was -0.466 (inactive)

Briefly, log2 ratio of Biotin-Ahx-Ub-VS probe labelling measured for CC1CCc2onc(CNC(=O)CCl)c2C1 (centres undefined) : -1.33 (active)

Noted for `Cc1n[nH]c(=O)c2c(NC(=O)CCl)oc(C)c12` : its log2 ratio of Biotin-Ahx-Ub-VS probe labelling reads -0.344 (inactive)

Recorded result, `Cc1cccc(C)c1NC(=O)CCl` , log2 ratio of Biotin-Ahx-Ub-VS probe labelling: -1.48 (active)

Quick note, log2 ratio of Biotin-Ahx-Ub-VS probe labelling for `O=C(CCl)N1CCC(C(=O)N2CCCC2)CC1` landed at -1.3 (active)

Looking up `O=C(CCl)N1CCOC2(CCC2)CC1` , I found its log2 ratio of Biotin-Ahx-Ub-VS probe labelling recorded as -1.35 (active)

The recorded log2 ratio of Biotin-Ahx-Ub-VS probe labelling for entry `O=C(CCl)N1CCC(=C(F)CO)C1` equals -1.56 (active)
